Reference for the values: patent US10709709B2

# SYSTEM NAME: PRMT5/MEP50 protein complex (Homo sapiens (Human), UniProt O14744)
# Sequence (O14744 other isoform, or with tags, fused parts or gaps): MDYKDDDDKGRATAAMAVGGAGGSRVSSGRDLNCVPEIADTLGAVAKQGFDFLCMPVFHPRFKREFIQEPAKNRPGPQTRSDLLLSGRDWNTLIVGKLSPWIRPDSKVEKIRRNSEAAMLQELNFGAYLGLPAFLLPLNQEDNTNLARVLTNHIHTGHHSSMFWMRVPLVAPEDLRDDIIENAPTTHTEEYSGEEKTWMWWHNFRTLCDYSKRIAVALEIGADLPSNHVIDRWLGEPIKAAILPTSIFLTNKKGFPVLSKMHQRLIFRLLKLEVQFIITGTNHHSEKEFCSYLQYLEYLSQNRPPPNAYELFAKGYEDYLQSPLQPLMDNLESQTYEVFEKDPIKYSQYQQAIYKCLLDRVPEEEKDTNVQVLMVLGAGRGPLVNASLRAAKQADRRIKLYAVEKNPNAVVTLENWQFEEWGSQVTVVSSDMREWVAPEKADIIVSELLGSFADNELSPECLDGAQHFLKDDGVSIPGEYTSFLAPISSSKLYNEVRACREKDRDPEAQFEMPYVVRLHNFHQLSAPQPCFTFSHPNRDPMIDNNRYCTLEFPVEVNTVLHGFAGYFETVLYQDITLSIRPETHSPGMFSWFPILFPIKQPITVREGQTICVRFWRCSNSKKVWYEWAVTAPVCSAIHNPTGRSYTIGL
# Sequence (Q9BQA1 whole entry partner): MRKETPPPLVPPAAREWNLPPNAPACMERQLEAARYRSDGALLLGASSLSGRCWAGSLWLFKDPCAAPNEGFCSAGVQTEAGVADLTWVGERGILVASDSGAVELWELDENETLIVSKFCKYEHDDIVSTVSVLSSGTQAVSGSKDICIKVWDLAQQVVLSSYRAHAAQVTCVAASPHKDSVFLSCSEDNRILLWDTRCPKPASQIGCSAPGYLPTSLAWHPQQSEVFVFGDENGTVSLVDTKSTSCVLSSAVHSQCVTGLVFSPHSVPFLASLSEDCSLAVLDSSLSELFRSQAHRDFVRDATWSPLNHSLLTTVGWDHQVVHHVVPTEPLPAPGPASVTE
# PROCEDURE SUMMARY: PRMT5 biochemical assay (3H-SAM methylation of H4(1-21) peptide, filter plate scintillation)
# REPORTED CONDITIONS: 10 nM PRMT5/MEP50 complex, 200 nM H4(1-21) peptide, 1 uM SAM, 25 minute incubation at room temperature
Please go through the items and note down their IC50.

Field IC50 (entry Cc1nc(N)nc2c1ccn2[C@@H]1C[C@H]([C@@H](O)c2ccc(F)c(F)c2)[C@@H](O)[C@H]1O ) reads 105 nM

Field IC50 (entry N#Cc1cccc2c(N[C@@H]3C[C@H](C(O)c4ccc(F)c(F)c4)[C@@H](O)[C@H]3O)ncnc12 (single isomer, unassigned) [Example 29] ) reads > 200000 nM

Field IC50 (entry Cc1ncnc2c1ccn2[C@@H]1C[C@H](Oc2ccc(Cl)c(F)c2CN)[C@@H](O)[C@H]1O ) reads 6 nM

Field IC50 (entry Cc1ncnc2c1ccn2[C@@H]1C[C@H](Oc2cc(Cl)c(F)c3c2CNCC3)[C@@H](O)[C@H]1O ) reads 1 nM

Field IC50 (entry Nc1ncnc2c1c(F)cn2[C@@H]1C[C@H](Oc2cc(F)cc3c2CNCC3)[C@@H](O)[C@H]1O ) reads 1 nM

Field IC50 (entry Cc1ncnc2c1ccn2[C@@H]1C[C@H]([C@H](O)c2ccc(F)c(F)c2)[C@@H](O)[C@H]1O ) reads 32 nM

Field IC50 (entry Cc1ncnc2c1ccn2[C@@H]1C[C@H](Oc2cc(Cl)c(Cl)cc2CN)[C@@H](O)[C@H]1O ) reads 24 nM

---

Please go through the items and note down their pIC50.
# System: A549 lung adenocarcinoma cells
# PROCEDURE SUMMARY: A549 proliferation assay (Cell Titer Glo)
# Format: cell-based
# REPORTED CONDITIONS: Homo sapiens, 168 h, 7 days with compound, cell viability by Cell Titer Glo (ATP)
# Description: A549 lung adenocarcinoma cells (American Type Culture Collection) were maintained in DMEM growth media (Life Technologies) supplemented with 10% v/v heat inactivated fetal bovine serum (Sigma) and cultured at 37° C., 5% CO2. […] Luminescence was read using the Envision 2104 Multilabel Reader (Perkin Elmer). […]
# pIC50: negative log10 of molar concentration; output just the value

Field pIC50 (entry Cc1ncnc2c1ccn2[C@@H]1C[C@H]([C@H](O)c2cc(F)c(F)c(F)c2)[C@@H](O)[C@H]1O ) reads 6.01

Field pIC50 (entry Cc1ncnc2c1ccn2[C@@H]1C[C@H]([C@H](O)c2ccc(F)c(F)c2)[C@@H](O)[C@H]1O ) reads 5.96

Field pIC50 (entry Cc1ncnc2c1ccn2[C@@H]1C[C@H]([C@H](O)c2ccc(F)c(Cl)c2)[C@@H](O)[C@H]1O ) reads 6.03

Field pIC50 (entry Cc1ncnc2c1ccn2[C@@H]1C[C@H]([C@H](O)c2ccc(Cl)cc2)[C@@H](O)[C@H]1O ) reads 5.86

Field pIC50 (entry Cc1ncnc2c1ccn2[C@@H]1C[C@H](Oc2ccc(Cl)cc2CCN)[C@@H](O)[C@H]1O ) reads 5.15

---

# SYSTEM NAME: PRMT5/MEP50 protein complex (Homo sapiens (Human), UniProt O14744)
# PROCEDURE SUMMARY: PRMT5 biochemical assay (3H-SAM methylation of H4(1-21) peptide, filter plate scintillation)
# REPORTED CONDITIONS: 10 nM PRMT5/MEP50 complex, 200 nM H4(1-21) peptide, 1 uM SAM, 25 minute incubation at room temperature
Please go through the items and note down their pIC50.
# pIC50: negative log10 of molar concentration; output just the value

Field pIC50 (entry Cc1ncnc2c1ccn2[C@@H]1C[C@H](Oc2ccc(Cl)c(Cl)c2CN)[C@@H](O)[C@H]1O ) reads 7.15

Field pIC50 (entry Cc1ncnc2c1ccn2[C@@H]1C[C@H](Oc2ccc(Cl)cc2CCN)[C@@H](O)[C@H]1O ) reads 7.57

Field pIC50 (entry Nc1ncnc2c1ccn2[C@@H]1C[C@H](Oc2ccc(F)c3c2CNCC3)[C@@H](O)[C@H]1O ) reads 8.52

Field pIC50 (entry Cc1ncnc2c1ccn2[C@@H]1C[C@H](Oc2cccc3c2CN(C)CC3)[C@@H](O)[C@H]1O ) reads 7.70

---

Please go through the items and note down their pIC50.
# SYSTEM NAME: PRMT5/MEP50 protein complex (Homo sapiens (Human), UniProt O14744)
# PROCEDURE SUMMARY: PRMT5 biochemical assay (3H-SAM methylation of H4(1-21) peptide, filter plate scintillation)
# REPORTED CONDITIONS: 10 nM PRMT5/MEP50 complex, 200 nM H4(1-21) peptide, 1 uM SAM, 25 minute incubation at room temperature
# pIC50: negative log10 of molar concentration; output just the value

Field pIC50 (entry Cc1ncnc2c1ccn2[C@@H]1C[C@H](Oc2cc(-c3cnco3)cc3c2CNCC3)[C@@H](O)[C@H]1O [Example 170] ) reads 9.00

Field pIC50 (entry Cc1ncnc2c1ccn2[C@@H]1C[C@H](Oc2ccc(Cl)cc2CN)[C@@H](O)[C@H]1O [Example 159] ) reads 8.30

Field pIC50 (entry Nc1ncnc2c1c(F)cn2[C@@H]1C[C@H](Oc2cccc3c2CNC3)[C@@H](O)[C@H]1O [Example 110] ) reads 8.10

Field pIC50 (entry Cc1ncnc2c1ccn2[C@@H]1C[C@H](Oc2cccc3c2C(N)CCC3)[C@@H](O)[C@H]1O (single isomer, unassigned) [Example 186] ) reads 7.92

Field pIC50 (entry Cc1ncnc2c1ccn2[C@@H]1C[C@H](Oc2ccc(F)cc2[C@@H](C)N)[C@@H](O)[C@H]1O [Example 137] ) reads 6.91

Field pIC50 (entry Cc1ncnc2c1ccn2[C@@H]1C[C@H]([C@H](O)c2ccc(Cl)cc2)[C@@H](O)[C@H]1O [Example 11] ) reads 7.70

Field pIC50 (entry Cc1ncnc2c1ccn2[C@@H]1C[C@H](Oc2c(F)cccc2F)[C@@H](O)[C@H]1O [Example 74] ) reads 4.20

Field pIC50 (entry Cc1ncnc2c1ccn2[C@@H]1C[C@H](Oc2ncnc3c2CNCC3)[C@@H](O)[C@H]1O [Example 156] ) reads 6.97

Field pIC50 (entry Cc1ncnc2c1ccn2[C@H]1C[C@H](Oc2cccc3c2C(=O)NCC3)[C@@H](O)[C@H]1O [Example 76] ) reads 3.84

Field pIC50 (entry Cc1ncnc2c1ccn2[C@@H]1C[C@H]([C@@H](C)O)[C@@H](O)[C@H]1O [Example 1] ) reads 6.29

Field pIC50 (entry Cc1ncnc2c1ccn2[C@@H]1C[C@H]([C@@H](O)c2cc(F)c(F)c(F)c2)[C@@H](O)[C@H]1O [Example 14] ) reads 6.14

Field pIC50 (entry Cc1ncnc2c1ccn2[C@@H]1C[C@H](Oc2cc(Cl)c(F)cc2[C@@H](C)N)[C@@H](O)[C@H]1O [Example 140] ) reads 7.77

Field pIC50 (entry Cc1ncnc2c1ccn2[C@@H]1C[C@H]([C@H](O)c2cccc3c2CNCC3)[C@@H](O)[C@H]1O [Example 56] ) reads 8.70

Field pIC50 (entry Cc1ncnc2c1ccn2[C@@H]1C[C@H](Oc2cc(-c3cc[nH]n3)cc3c2CNCC3)[C@@H](O)[C@H]1O [Example 171] ) reads 7.85

Field pIC50 (entry CO[C@@H]1C[C@H](n2ccc3c(C)ncnc32)[C@@H](O)[C@H]1O [Example 61] ) reads 5.67

Field pIC50 (entry CNCc1cc(F)ccc1O[C@H]1C[C@@H](n2ccc3c(C)ncnc32)[C@H](O)[C@@H]1O [Example 72] ) reads 7.66

Field pIC50 (entry Cc1ncnc2c1ccn2[C@@H]1C[C@H]([C@H](O)c2ccc(Cl)cc2CN)[C@@H](O)[C@H]1O [Example 53] ) reads 8.22

Field pIC50 (entry Cc1ncnc2c1ccn2[C@@H]1C[C@H](Oc2ccc(F)cc2CN)[C@@H](O)[C@H]1O [Example 66] ) reads 8.40

Field pIC50 (entry Cc1ncnc2c1ccn2[C@@H]1C[C@H](Oc2cc(C(F)F)cc3c2CNCC3)[C@@H](O)[C@H]1O [Example 154] ) reads 9.00

Field pIC50 (entry Cc1cc2c(c(O[C@H]3C[C@@H](n4cc(F)c5cnc(C)nc54)[C@H](O)[C@@H]3O)c1)CNCC2 [Example 127] ) reads 8.05

Field pIC50 (entry O[C@@H]1[C@H](O)[C@@H]([C@@H](O)c2ccc(F)c(F)c2)C[C@H]1Nc1ncnc2[nH]ccc12 [Example 28] ) reads 5.24

Field pIC50 (entry Cc1ncnc2c1ccn2[C@@H]1C[C@H]([C@@H](O)c2ccc(Cl)c(F)c2)[C@@H](O)[C@H]1O [Example 161] ) reads 6.70

Field pIC50 (entry Cc1cn([C@@H]2C[C@H](Oc3cc(F)c(F)c4c3CNCC4)[C@@H](O)[C@H]2O)c2ncnc(N)c12 [Example 179] ) reads 9.00

Field pIC50 (entry CN1Cc2cccc(O[C@H]3C[C@@H](n4cc(F)c5c(N)ncnc54)[C@H](O)[C@@H]3O)c2C1 [Example 115] ) reads 6.83

Field pIC50 (entry Cc1cc2c(c(O[C@H]3C[C@@H](n4cc(Br)c5c(N)ncnc54)[C@H](O)[C@@H]3O)c1)CNCC2 [Example 123] ) reads 8.70

Field pIC50 (entry Cc1ncnc2c1ccn2[C@@H]1C[C@H](Oc2nccc3c2CNCC3)[C@@H](O)[C@H]1O [Example 157] ) reads 8.40

Field pIC50 (entry Cc1ncnc2c1ccn2[C@@H]1C[C@H]([C@H](O)c2ccc(Cl)c(F)c2)[C@@H](O)[C@H]1O [Example 160] ) reads 8.05

Field pIC50 (entry Cc1ncnc2c1ccn2[C@@H]1C[C@H](Oc2cc(Br)c(F)c3c2CNCC3)[C@@H](O)[C@H]1O [Example 94] ) reads 9.00

Field pIC50 (entry Cc1ncnc2c1ccn2[C@@H]1C[C@H](C2(O)CC2)[C@@H](O)[C@H]1O [Example 17] ) reads 5.56
